species: Bos taurus; assay: Polymerizing activity of microtubule protein against the twice cycled microtubule protein; type: functional
REPORTED_ENDPOINT: EC0.01 (relative to paclitaxel)
Please respond with just the number, no unit label.

EC0.01 (relative to paclitaxel) for CC(=O)O[C@H]1C(=O)[C@@]2(C)[C@H]([C@H](OC(=O)c3cccc(Cl)c3)[C@]3(O)C[C@H](OC(=O)[C@H](O)[C@@H](NC(=O)c4ccccc4)c4ccccc4)C(C)=C1C3(C)C)[C@]1(OC(C)=O)CO[C@@H]1C[C@@H]2O is 0.92

EC0.01 (relative to paclitaxel) for CC(=O)O[C@H]1C(=O)[C@@]2(C)[C@H]([C@H](OC(=O)c3cccc(C#N)c3)[C@]3(O)C[C@H](OC(=O)[C@H](O)[C@@H](NC(=O)c4ccccc4)c4ccccc4)C(C)=C1C3(C)C)[C@]1(OC(C)=O)CO[C@@H]1C[C@@H]2O is 1

EC0.01 (relative to paclitaxel) for CC(=O)O[C@H]1C(=O)[C@@]2(C)[C@H]([C@H](OC(=O)c3cc(Cl)cc(Cl)c3)[C@]3(O)C[C@H](OC(=O)[C@H](O)[C@@H](NC(=O)c4ccccc4)c4ccccc4)C(C)=C1C3(C)C)[C@]1(OC(C)=O)CO[C@@H]1C[C@@H]2O is 0.44

EC0.01 (relative to paclitaxel) for COc1cc(C(=O)O[C@H]2[C@@H]3[C@]4(OC(C)=O)CO[C@@H]4C[C@H](O)[C@@]3(C)C(=O)[C@H](OC(C)=O)C3=C(C)[C@@H](OC(=O)[C@H](O)[C@@H](NC(=O)c4ccccc4)c4ccccc4)C[C@]2(O)C3(C)C)cc(OC)c1OC is 32

EC0.01 (relative to paclitaxel) for CC(=O)O[C@H]1C(=O)[C@@]2(C)[C@H]([C@H](OC(=O)c3cc(N=[N+]=[N-])cc(N=[N+]=[N-])c3)[C@]3(O)C[C@H](OC(=O)[C@H](O)[C@@H](NC(=O)c4ccccc4)c4ccccc4)C(C)=C1C3(C)C)[C@]1(OC(C)=O)CO[C@@H]1C[C@@H]2O is 0.67

EC0.01 (relative to paclitaxel) for CC(=O)O[C@H]1C(=O)[C@@]2(C)[C@H]([C@H](OC(=O)c3ccc(O)cc3)[C@]3(O)C[C@H](OC(=O)[C@H](O)[C@@H](NC(=O)c4ccccc4)c4ccccc4)C(C)=C1C3(C)C)[C@]1(OC(C)=O)CO[C@@H]1C[C@@H]2O is 19

EC0.01 (relative to paclitaxel) for CC(=O)O[C@H]1C(=O)[C@@]2(C)[C@H]([C@H](OC(=O)c3ccccc3N=[N+]=[N-])[C@]3(O)C[C@H](OC(=O)[C@H](O)[C@@H](NC(=O)c4ccccc4)c4ccccc4)C(C)=C1C3(C)C)[C@]1(OC(C)=O)CO[C@@H]1C[C@@H]2O is 0.7

EC0.01 (relative to paclitaxel) for CC(=O)O[C@H]1C(=O)[C@@]2(C)[C@H]([C@H](OC(=O)c3cccc(F)c3F)[C@]3(O)C[C@H](OC(=O)[C@H](O)[C@@H](NC(=O)c4ccccc4)c4ccccc4)C(C)=C1C3(C)C)[C@]1(OC(C)=O)CO[C@@H]1C[C@@H]2O is 0.8

EC0.01 (relative to paclitaxel) for CC(=O)O[C@H]1C(=O)[C@@]2(C)[C@H]([C@H](OC(=O)c3cccc(N=[N+]=[N-])c3)[C@]3(O)C[C@H](OC(=O)[C@H](O)[C@@H](NC(=O)c4ccccc4)c4ccccc4)C(C)=C1C3(C)C)[C@]1(OC(C)=O)CO[C@@H]1C[C@@H]2O is 0.37

EC0.01 (relative to paclitaxel) for CC(=O)O[C@H]1C(=O)[C@@]2(C)[C@H]([C@H](OC(=O)c3ccc(F)c(F)c3)[C@]3(O)C[C@H](OC(=O)[C@H](O)[C@@H](NC(=O)c4ccccc4)c4ccccc4)C(C)=C1C3(C)C)[C@]1(OC(C)=O)CO[C@@H]1C[C@@H]2O is 2.2

EC0.01 (relative to paclitaxel) for CC(=O)O[C@H]1C(=O)[C@@]2(C)[C@H]([C@H](OC(=O)c3cccc(I)c3)[C@]3(O)C[C@H](OC(=O)[C@H](O)[C@@H](NC(=O)c4ccccc4)c4ccccc4)C(C)=C1C3(C)C)[C@]1(OC(C)=O)CO[C@@H]1C[C@@H]2O is 0.79

EC0.01 (relative to paclitaxel) for CC(=O)O[C@H]1C(=O)[C@@]2(C)[C@H]([C@H](OC(=O)c3cc(F)ccc3F)[C@]3(O)C[C@H](OC(=O)[C@H](O)[C@@H](NC(=O)c4ccccc4)c4ccccc4)C(C)=C1C3(C)C)[C@]1(OC(C)=O)CO[C@@H]1C[C@@H]2O is 0.34

EC0.01 (relative to paclitaxel) for COc1cc(OC)cc(C(=O)O[C@H]2[C@@H]3[C@]4(OC(C)=O)CO[C@@H]4C[C@H](O)[C@@]3(C)C(=O)[C@H](OC(C)=O)C3=C(C)[C@@H](OC(=O)[C@H](O)[C@@H](NC(=O)c4ccccc4)c4ccccc4)C[C@]2(O)C3(C)C)c1 is 2.6

EC0.01 (relative to paclitaxel) for CC(=O)O[C@H]1C(=O)[C@@]2(C)[C@H]([C@H](OC(=O)c3cc([N+](=O)[O-])cc([N+](=O)[O-])c3)[C@]3(O)C[C@H](OC(=O)[C@H](O)[C@@H](NC(=O)c4ccccc4)c4ccccc4)C(C)=C1C3(C)C)[C@]1(OC(C)=O)CO[C@@H]1C[C@@H]2O is 4.2

EC0.01 (relative to paclitaxel) for COc1ccc(OC)c(C(=O)O[C@H]2[C@@H]3[C@]4(OC(C)=O)CO[C@@H]4C[C@H](O)[C@@]3(C)C(=O)[C@H](OC(C)=O)C3=C(C)[C@@H](OC(=O)[C@H](O)[C@@H](NC(=O)c4ccccc4)c4ccccc4)C[C@]2(O)C3(C)C)c1 is 0.5
